target: dopamine D-2 receptor (Rattus norvegicus); assay: biochemical; format: binding; details: rat caudate, [125I]-p-aminophenylethyl spiroperidol; read-out: D-2 Ki
Sequence (P61169 whole entry): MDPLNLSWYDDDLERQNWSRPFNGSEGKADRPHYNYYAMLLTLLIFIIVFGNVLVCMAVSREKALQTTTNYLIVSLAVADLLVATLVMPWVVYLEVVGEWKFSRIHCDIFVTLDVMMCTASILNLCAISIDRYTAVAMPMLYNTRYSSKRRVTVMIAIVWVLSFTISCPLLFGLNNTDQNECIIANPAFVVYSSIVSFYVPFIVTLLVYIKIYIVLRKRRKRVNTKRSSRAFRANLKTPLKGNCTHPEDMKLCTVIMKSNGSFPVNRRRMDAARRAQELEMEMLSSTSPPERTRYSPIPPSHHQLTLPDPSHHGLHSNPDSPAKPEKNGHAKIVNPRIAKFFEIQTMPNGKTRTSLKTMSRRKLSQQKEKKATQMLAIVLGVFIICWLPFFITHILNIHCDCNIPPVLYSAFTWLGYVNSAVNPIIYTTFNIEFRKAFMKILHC
measured_metric: pKi
Value format note: pKi is -log10 of concentration (mol/L); just state the number.

# pKi (compound: Br.NC[C@@H]1C[C@H](C2CCCCC2)Cc2c1ccc(O)c2O [Example 37, Hydrobromide] ) is 5.00

# pKi (compound: CCCC[C@@H]1Cc2c(ccc(O)c2O)[C@H](CN)O1 (relative stereo) ) is 6.04

More entries:
# pKi (compound: CN1CCC2=C(C1)c1ccc(O)c(O)c1CC21CCCCCC1 ) is 6.22

# pKi (compound: NC[C@@H]1O[C@H](c2ccc(I)cc2)Cc2c1ccc(O)c2O (relative stereo) ) is 5.96

# pKi (compound: CC(C)(C)C1Cc2c(ccc(O)c2O)C2=C1CCNC2 (stereo not shown) ) is 5.37

# pKi (compound: NCC1OC2(CCCCC2)Cc2c1ccc(O)c2O (stereo not shown) ) is 5.21

# pKi (compound: CN1CCC2=C(C1)c1ccc(O)c(O)c1CC21CCCCCCCC1 ) is 6.06

Hey, just so you know, these numbers are from patent US5621133A.
